# maps each entry to its IC50
ASSAYED SYSTEM: JAK 1 (Homo sapiens (Human))
Sequence (P23458 whole entry): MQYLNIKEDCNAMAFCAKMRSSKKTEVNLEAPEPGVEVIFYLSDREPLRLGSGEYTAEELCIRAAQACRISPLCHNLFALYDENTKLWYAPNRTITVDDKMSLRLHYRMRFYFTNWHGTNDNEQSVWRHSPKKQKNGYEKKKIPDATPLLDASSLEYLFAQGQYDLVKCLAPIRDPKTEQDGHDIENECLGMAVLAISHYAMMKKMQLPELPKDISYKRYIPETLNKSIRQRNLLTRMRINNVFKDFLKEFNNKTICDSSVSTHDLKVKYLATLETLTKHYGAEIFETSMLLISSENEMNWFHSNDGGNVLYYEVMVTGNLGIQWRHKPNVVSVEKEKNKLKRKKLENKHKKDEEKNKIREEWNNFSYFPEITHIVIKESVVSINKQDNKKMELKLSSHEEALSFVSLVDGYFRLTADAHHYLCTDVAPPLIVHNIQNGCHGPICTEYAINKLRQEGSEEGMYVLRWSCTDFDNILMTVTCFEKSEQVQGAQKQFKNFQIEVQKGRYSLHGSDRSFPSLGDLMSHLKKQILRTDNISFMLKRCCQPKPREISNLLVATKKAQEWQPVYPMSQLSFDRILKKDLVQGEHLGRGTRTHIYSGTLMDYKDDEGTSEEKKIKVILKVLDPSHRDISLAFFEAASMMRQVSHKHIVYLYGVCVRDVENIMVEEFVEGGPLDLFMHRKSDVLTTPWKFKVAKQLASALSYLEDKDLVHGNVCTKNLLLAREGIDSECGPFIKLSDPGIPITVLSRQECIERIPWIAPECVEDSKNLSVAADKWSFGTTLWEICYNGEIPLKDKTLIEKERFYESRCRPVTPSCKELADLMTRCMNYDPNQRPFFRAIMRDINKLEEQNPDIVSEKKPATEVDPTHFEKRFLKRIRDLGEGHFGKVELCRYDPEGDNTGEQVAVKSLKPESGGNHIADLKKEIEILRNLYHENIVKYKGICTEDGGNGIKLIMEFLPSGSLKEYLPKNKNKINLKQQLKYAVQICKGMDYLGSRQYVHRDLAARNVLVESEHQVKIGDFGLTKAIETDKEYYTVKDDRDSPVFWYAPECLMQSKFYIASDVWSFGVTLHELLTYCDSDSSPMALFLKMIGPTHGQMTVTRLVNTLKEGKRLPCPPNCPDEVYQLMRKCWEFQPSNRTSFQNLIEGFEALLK
ASSAY REMARKS: Biochemical potency on JAK1, TR-FRET LANCE Ultra kinase assay (compounds 1-92)
MEASUREMENT SETUP: ATP at Km, read-out: JAK1 inhibitory activity (pIC50 class) (converted)

The following compounds have reported results that may help.
COMPOUND: COc1cc(CNC(=O)Nc2ccccc2)ccc1-n1nc(C)c2cnc(-c3cnn4cccnc34)cc21
IC50: > 50.1 nM
//
COMPOUND: COc1cc(NS(C)(=O)=O)ccc1-n1nc(C)c2cnc(-c3cnn4cccnc34)cc21
IC50: ≤ 5.01 nM
//
COMPOUND: COc1cc(NS(=O)(=O)c2cnn(C)c2)ccc1-n1nc(C)c2cnc(-c3cnn4cccnc34)cc21
IC50: ≤ 5.01 nM
//
COMPOUND: COc1cc(NS(C)(=O)=O)ccc1-n1nc(NC(=O)C2CCN(C)CC2)c2cnc(-c3cnn4cccnc34)cc21
IC50: ≤ 5.01 nM
//
COMPOUND: COc1cc(NS(=O)(=O)CC2CCCO2)ccc1-n1nc(C)c2cnc(-c3cnn4cccnc34)cc21 (stereo not drawn)
IC50: 5.01 to 50.1 nM
//
COMPOUND: COc1cc(NS(=O)(=O)C2CC2)cnc1-n1nc(NCCN(C)C)c2cnc(-c3cnn4cccnc34)cc21
IC50: 5.01 to 50.1 nM
//
COMPOUND: COc1cc(NS(=O)(=O)c2cnn(C)c2)ccc1-n1nc(C)c2cnc(Nc3ncc[nH]c3=O)cc21
IC50: 5.01 to 50.1 nM
//
COMPOUND: COc1cc(NS(=O)(=O)C2CC2)ccc1-n1nc(NCCN(C)C)c2cnc(-c3cnn4cccnc34)cc21
IC50: 5.01 to 50.1 nM

The compound identified as `COc1cc(NS(=O)(=O)CC(N)=O)ccc1-n1nc(C)c2cnc(-c3cnn4cccnc34)cc21` registered its IC50 at ≤ 5.01 nM

The recorded IC50 for entry `CNc1nn(-c2ccc(CNS(C)(=O)=O)cc2OC)c2cc(-c3cnn4cccnc34)ncc12` equals ≤ 5.01 nM

Consider `COc1cc(NS(C)(=O)=O)ccc1-n1nc(NCCN2CCOCC2)c2cnc(-c3cnc4cccnn34)cc21` . Its measured IC50 is ≤ 5.01 nM

// field: IC50; key: `COc1cc(CO)ccc1-n1nc(C)c2cnc(-c3cnn4cccnc34)cc21` ; value = 5.01 to 50.1 nM

The compound identified as COc1cc(C(C)NS(C)(=O)=O)ccc1-n1nc(C)c2cnc(-c3cnn4cccnc34)cc21 (stereo not drawn) registered its IC50 at ≤ 5.01 nM

IC50 measured on `COc1cc(NS(=O)(=O)C2CC2)ccc1-n1nc(N[C@H]2C[C@@H](N(C)C)C2)c2cnc(-c3cnn4cccnc34)cc21` = ≤ 5.01 nM

response.value for `COc1cc(NS(C)(=O)=O)ccc1-n1nc(NCCN2CCOCC2)c2cnc(-c3cnn4cccnc34)cc21` (field: IC50) = ≤ 5.01 nM

====

Biochemical Potency JAK 1 (pIC50): recorded values
ASSAYED SYSTEM: JAK 1 (Homo sapiens (Human))
ASSAY REMARKS: Biochemical potency JAK1, TR-FRET LANCE Ultra kinase assay (examples 1a-10a)
MEASUREMENT SETUP: ATP corresponding to Km
# output: bare number, no unit

Consider the reported Biochemical Potency JAK 1 (pIC50) for these compounds:
COMPOUND: OCc1nn(-c2cc(Cl)ccc2OC(F)F)c2cc(-c3cnn4cccnc34)cnc12
ASSAYED SYSTEM: JAK 1 (Homo sapiens (Human))
Biochemical Potency JAK 1 (pIC50): 8.1

COMPOUND: Cc1nn(-c2cc(Cl)ccc2OC(F)F)c2cc(-c3cnc4cccnn34)ncc12
ASSAYED SYSTEM: JAK 1 (Homo sapiens (Human))
Biochemical Potency JAK 1 (pIC50): 8.4

COMPOUND: COC(=O)c1nn(-c2cc(Cl)ccc2OC(F)F)c2cc(-c3cnn4cccnc34)cnc12
ASSAYED SYSTEM: JAK 1 (Homo sapiens (Human))
Biochemical Potency JAK 1 (pIC50): 8.1

COMPOUND: Cc1nn(-c2cc(Cl)ccc2OC(F)F)c2cc(-c3cnn4cccnc34)cnc12
ASSAYED SYSTEM: JAK 1 (Homo sapiens (Human))
Biochemical Potency JAK 1 (pIC50): 7.8

COMPOUND: CN(C)C(=O)Cn1nc(-c2cc(Cl)ccc2OC(F)F)c2cc(-c3cnn4cccnc34)cnc21
ASSAYED SYSTEM: JAK 1 (Homo sapiens (Human))
Biochemical Potency JAK 1 (pIC50): 7.3

COMPOUND: Cc1nn(-c2cc(Cl)ccc2OC(F)F)c2cc(-c3cnn4cccnc34)ncc12
ASSAYED SYSTEM: JAK 1 (Homo sapiens (Human))
Biochemical Potency JAK 1 (pIC50): 8.5

COMPOUND: O=C(O)Cc1nn(-c2cc(Cl)ccc2OC(F)F)c2cc(-c3cnn4cccnc34)cnc12
ASSAYED SYSTEM: JAK 1 (Homo sapiens (Human))
Biochemical Potency JAK 1 (pIC50): 7.7

COMPOUND: Cc1nn(C2CCCN(C(=O)CC#N)C2)c2cc(-c3cnn4cccnc34)cnc12 (stereo not shown) [Example 10a]
ASSAYED SYSTEM: JAK 1 (Homo sapiens (Human))
Biochemical Potency JAK 1 (pIC50): 6.0

COMPOUND: Cc1nn(Cc2ccc(Cl)cc2F)c2cc(-c3cnc4cccnn34)cnc12
ASSAYED SYSTEM: JAK 1 (Homo sapiens (Human))
Biochemical Potency JAK 1 (pIC50): 6.7

Next item in the queue.
Notebook: `CN(C)C(=O)Cc1nn(-c2cc(Cl)ccc2OC(F)F)c2cc(-c3cnn4cccnc34)cnc12` , Biochemical Potency JAK 1 (pIC50) read as 7.8

====

ASSAYED SYSTEM: JAK 2 (Homo sapiens (Human))
Sequence (O60674 whole entry): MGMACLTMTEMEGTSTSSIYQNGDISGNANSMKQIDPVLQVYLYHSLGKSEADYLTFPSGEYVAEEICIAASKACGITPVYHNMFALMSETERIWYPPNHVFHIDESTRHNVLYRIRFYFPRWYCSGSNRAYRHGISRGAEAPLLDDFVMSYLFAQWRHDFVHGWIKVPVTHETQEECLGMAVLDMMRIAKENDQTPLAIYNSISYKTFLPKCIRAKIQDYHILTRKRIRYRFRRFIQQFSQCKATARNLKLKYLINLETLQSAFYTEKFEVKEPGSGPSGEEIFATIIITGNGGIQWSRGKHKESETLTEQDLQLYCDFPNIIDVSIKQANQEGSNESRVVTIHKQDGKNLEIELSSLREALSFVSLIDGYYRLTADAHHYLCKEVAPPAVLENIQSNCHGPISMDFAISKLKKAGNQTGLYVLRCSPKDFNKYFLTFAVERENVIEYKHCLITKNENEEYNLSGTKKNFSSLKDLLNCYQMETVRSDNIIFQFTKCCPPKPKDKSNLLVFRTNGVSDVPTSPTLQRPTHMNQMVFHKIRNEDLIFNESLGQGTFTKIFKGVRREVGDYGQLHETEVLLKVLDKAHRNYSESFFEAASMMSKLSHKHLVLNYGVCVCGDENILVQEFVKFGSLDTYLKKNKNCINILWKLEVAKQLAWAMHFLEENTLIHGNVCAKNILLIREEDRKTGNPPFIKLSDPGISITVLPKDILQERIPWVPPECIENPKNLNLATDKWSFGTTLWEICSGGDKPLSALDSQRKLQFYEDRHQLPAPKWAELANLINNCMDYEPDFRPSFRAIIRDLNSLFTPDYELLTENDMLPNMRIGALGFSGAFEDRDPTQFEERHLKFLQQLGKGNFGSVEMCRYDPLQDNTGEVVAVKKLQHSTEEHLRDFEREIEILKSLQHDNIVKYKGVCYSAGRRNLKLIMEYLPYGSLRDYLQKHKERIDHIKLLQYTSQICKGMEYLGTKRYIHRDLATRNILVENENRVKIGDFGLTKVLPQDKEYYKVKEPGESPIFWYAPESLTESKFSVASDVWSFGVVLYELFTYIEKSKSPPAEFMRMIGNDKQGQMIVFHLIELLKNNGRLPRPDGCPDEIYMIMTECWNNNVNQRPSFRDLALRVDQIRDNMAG
ASSAY REMARKS: Biochemical potency on JAK2, TR-FRET LANCE Ultra kinase assay (compounds 1-92)
MEASUREMENT SETUP: ATP at Km, read-out: JAK2 inhibitory activity (pIC50 class) (converted)
MEASURE: IC50

Examples with their reported IC50 follow.
MOLECULE: COc1cc(NS(=O)(=O)CCC(N)=O)ccc1-n1nc(C)c2cnc(-c3cnn4cccnc34)cc21
RESULT: ≤ 5.01 nM
--
MOLECULE: COc1cc(C(C)NS(C)(=O)=O)ccc1-n1nc(C)c2cnc(-c3cnn4cccnc34)cc21 (stereo not shown)
RESULT: ≤ 5.01 nM
--
MOLECULE: COc1cc(NS(=O)(=O)C2CC2)ccc1-n1nc(NCCN2CCCCC2)c2cnc(-c3cnn4cccnc34)cc21
RESULT: 5.01 to 50.1 nM

Okay, next one:
response.value for `Cc1nn(-c2ccc(CNS(C)(=O)=O)cc2OC(F)F)c2cc(-c3cnn4cccnc34)ncc12` (field: IC50) = ≤ 5.01 nM

====

ASSAYED SYSTEM: TYK2 (Homo sapiens (Human), UniProt P29597)
Sequence (P29597 whole entry): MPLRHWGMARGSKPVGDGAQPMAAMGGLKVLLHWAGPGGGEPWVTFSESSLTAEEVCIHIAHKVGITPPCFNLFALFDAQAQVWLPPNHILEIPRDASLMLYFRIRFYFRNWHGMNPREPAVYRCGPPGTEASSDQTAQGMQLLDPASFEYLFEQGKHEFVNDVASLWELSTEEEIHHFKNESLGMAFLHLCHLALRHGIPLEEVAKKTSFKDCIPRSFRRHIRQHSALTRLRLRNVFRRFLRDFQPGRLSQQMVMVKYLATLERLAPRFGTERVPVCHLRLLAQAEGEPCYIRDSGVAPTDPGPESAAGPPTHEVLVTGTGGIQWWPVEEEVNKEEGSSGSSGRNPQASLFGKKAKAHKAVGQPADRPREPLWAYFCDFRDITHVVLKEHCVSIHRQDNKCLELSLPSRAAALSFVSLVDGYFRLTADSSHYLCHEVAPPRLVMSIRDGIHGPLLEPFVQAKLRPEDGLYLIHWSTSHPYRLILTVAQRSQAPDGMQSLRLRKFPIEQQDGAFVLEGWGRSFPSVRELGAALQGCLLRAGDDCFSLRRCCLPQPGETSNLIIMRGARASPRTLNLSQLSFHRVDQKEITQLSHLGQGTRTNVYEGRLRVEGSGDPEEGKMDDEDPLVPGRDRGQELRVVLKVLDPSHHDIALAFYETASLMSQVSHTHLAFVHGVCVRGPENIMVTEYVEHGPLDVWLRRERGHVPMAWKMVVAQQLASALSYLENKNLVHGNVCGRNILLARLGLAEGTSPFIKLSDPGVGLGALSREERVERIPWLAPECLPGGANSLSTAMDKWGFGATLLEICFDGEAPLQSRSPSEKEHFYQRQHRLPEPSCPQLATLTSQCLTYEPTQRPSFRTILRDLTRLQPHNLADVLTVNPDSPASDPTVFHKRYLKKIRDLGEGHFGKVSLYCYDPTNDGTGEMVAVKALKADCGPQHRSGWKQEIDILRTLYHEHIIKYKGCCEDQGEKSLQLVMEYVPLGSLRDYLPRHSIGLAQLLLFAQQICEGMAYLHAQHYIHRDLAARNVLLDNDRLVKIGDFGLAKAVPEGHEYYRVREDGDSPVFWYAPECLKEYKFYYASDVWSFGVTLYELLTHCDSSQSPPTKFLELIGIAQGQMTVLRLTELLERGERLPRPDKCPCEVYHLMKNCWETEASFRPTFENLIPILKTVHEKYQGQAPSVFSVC
ASSAY REMARKS: Biochemical potency on Tyk2, TR-FRET LANCE Ultra kinase assay (compounds 1-92)
MEASUREMENT SETUP: ATP at Km, read-out: Tyk2 inhibitory activity (pIC50 class) (converted)
MEASURE: IC50

Look over these answered cases.
COMPOUND: COc1cc(NS(C)(=O)=O)ccc1-n1nc(NCCN(C)C)c2cnc(-c3cnn4cccnc34)cc21 [Example 31]
ASSAYED SYSTEM: TYK2 (Homo sapiens (Human), UniProt P29597)
IC50: 5.01 to 50.1 nM

COMPOUND: O=S(=O)(Nc1ccc(-n2nc(NCCN3CCOCC3)c3cnc(-c4cnn5cccnc45)cc32)c(OC(F)F)c1)C1CC1 [Example 25]
ASSAYED SYSTEM: TYK2 (Homo sapiens (Human), UniProt P29597)
IC50: > 50.1 nM

Memo: COc1cc(NS(C)(=O)=O)ccc1-n1nc(NCCN2C3CCC2COC3)c2cnc(Nc3ncc[nH]c3=O)cc21 [Example 90] , reported IC50: ≤ 5.01 nM

Data point: COc1cc(NS(C)(=O)=O)ccc1-n1nc(NCCN(C)C)c2cnc(-c3cnc4cccnn34)cc21 [Example 77] ; IC50 = 5.01 to 50.1 nM

According to the records, this compound CNS(=O)(=O)c1ccc(-n2nc(C)c3cnc(-c4cnn5cccnc45)cc32)c(OC)c1 [Example 49] displays IC50 of > 50.1 nM

Lab book: IC50 of COc1cc(CNS(C)(=O)=O)ccc1-n1nc(NCCN2CCCCC2)c2cnc(-c3cnn4cccnc34)cc21 [Example 54] noted as 5.01 to 50.1 nM

response.value for COc1cc(NS(=O)(=O)CCC(N)=O)ccc1-n1nc(C)c2cnc(-c3cnn4cccnc34)cc21 [Example 13] (field: IC50) = 5.01 to 50.1 nM

====

ASSAYED SYSTEM: UniProtKB O60674
ASSAY REMARKS: Biochemical potency on JAK2, TR-FRET LANCE Ultra kinase assay (compounds 1-92)
MEASUREMENT SETUP: ATP at Km, read-out: JAK2 inhibitory activity (pIC50 class) (converted)
MEASURE: IC50

Some solved cases for reference:
COMPOUND: COc1cc(NS(C)(=O)=O)cnc1-n1nc(C)c2cnc(-c3cnn4cccnc34)cc21 [Example 11]
IC50: ≤ 5.01 nM
//
COMPOUND: COc1cc(NS(=O)(=O)C2CC2)ccc1-n1nc(N[C@H]2C[C@@H](N(C)C)C2)c2cnc(-c3cnn4cccnc34)cc21 [Example 78]
IC50: ≤ 5.01 nM
//
COMPOUND: COc1cc(NS(=O)(=O)C2CC2)ccc1-n1nc(CC#N)c2cnc(-c3cnn4cccnc34)cc21 [Example 84]
IC50: ≤ 5.01 nM
//
COMPOUND: COc1cc(CNS(C)(=O)=O)ccc1-n1nc(C(=O)NCCCN(C)C)c2cnc(-c3cnn4cccnc34)cc21 [Example 59]
IC50: 5.01 to 50.1 nM
//
COMPOUND: COc1cc(NS(C)(=O)=O)ccc1-n1nc(NCCN2CCOCC2)c2cnc(Nc3ncc[nH]c3=O)cc21 [Example 87]
IC50: ≤ 5.01 nM

// compound COc1cc(C#N)ccc1-n1nc(C)c2cnc(-c3cnn4cccnc34)cc21 [Example 15] , assay UniProtKB O60674, IC50 value: 5.01 to 50.1 nM

Entry COc1cc(NS(=O)(=O)C2CCOC2)ccc1-n1nc(C)c2cnc(-c3cnn4cccnc34)cc21 (centres unmarked) [Example 9] under UniProtKB O60674 had IC50 of ≤ 5.01 nM

// compound COc1cc(N)ccc1-n1nc(C)c2cnc(-c3cnn4cccnc34)cc21 [Example 17] , assay UniProtKB O60674, IC50 value: 5.01 to 50.1 nM

Every entry's value here was drawn from patent US20240209001A1.
